src = ChEMBL document CHEMBL1909046

- measured-on: C-C chemokine receptor type 2 (Homo sapiens)
- Sequence (P41597 whole entry): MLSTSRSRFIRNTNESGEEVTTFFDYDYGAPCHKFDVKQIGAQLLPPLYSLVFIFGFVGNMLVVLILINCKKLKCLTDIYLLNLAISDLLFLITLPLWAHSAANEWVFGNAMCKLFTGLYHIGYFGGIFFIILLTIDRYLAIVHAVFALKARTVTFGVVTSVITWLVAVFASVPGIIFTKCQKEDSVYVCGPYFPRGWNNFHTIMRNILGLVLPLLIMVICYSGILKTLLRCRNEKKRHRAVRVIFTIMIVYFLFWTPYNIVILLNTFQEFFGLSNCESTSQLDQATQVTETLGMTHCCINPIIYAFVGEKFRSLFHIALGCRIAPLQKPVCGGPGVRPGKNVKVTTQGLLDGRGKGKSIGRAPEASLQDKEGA
- Assay type: cell membranes, CHO-K1, Membrane
- details: read-out: Ki
measured-parameter: Ki (nM)
Please reply with the bare figure in nM and do not write the unit itself.

Would you kindly share the measured Ki for S=C=Nc1cccc2ccccc12 [1-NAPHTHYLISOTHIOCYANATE] ?
2590

====

- measured-on: Estrogen receptor (Homo sapiens, UniProt P03372)
- Sequence (P03372 whole entry): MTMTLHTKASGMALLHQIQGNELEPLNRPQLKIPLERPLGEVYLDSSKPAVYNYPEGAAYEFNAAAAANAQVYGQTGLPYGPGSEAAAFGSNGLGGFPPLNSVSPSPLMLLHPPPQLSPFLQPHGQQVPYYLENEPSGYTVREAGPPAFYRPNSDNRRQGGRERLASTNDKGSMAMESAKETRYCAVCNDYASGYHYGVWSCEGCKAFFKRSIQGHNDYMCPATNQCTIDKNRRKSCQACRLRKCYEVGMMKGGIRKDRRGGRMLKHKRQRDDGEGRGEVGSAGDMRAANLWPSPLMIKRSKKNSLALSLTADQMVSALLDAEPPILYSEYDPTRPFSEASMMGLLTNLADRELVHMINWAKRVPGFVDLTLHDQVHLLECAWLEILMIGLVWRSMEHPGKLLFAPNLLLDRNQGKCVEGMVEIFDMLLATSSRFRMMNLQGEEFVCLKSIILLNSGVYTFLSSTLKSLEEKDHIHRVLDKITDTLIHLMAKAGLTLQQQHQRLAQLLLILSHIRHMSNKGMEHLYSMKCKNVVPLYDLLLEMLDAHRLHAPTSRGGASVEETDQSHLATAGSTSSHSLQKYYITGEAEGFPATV
- details: sf9
measured-parameter: IC50

molecule | data-value
C[C@H]1O[C@@H](O[C@H]2[C@@H](O)C[C@H](O[C@H]3[C@@H](O)C[C@H](O[C@H]4CC[C@@]5(C)[C@H](CC[C@@H]6[C@@H]5CC[C@]5(C)[C@@H](C7=CC(=O)OC7)CC[C@]65O)C4)O[C@@H]3C)O[C@@H]2C)C[C@H](O)[C@@H]1O | Not Active
CN1C(=O)COc2c(C(=O)NC3CN4CCC3CC4)cc(Cl)cc21 (stereo not drawn) | Not Active
Cc1ccccc1C(=O)N1CCC(Cc2ccccc2)CC1 | Not Active

====

- measured-on: Cytochrome P450 3A4 (Homo sapiens)
- Sequence (P08684 whole entry): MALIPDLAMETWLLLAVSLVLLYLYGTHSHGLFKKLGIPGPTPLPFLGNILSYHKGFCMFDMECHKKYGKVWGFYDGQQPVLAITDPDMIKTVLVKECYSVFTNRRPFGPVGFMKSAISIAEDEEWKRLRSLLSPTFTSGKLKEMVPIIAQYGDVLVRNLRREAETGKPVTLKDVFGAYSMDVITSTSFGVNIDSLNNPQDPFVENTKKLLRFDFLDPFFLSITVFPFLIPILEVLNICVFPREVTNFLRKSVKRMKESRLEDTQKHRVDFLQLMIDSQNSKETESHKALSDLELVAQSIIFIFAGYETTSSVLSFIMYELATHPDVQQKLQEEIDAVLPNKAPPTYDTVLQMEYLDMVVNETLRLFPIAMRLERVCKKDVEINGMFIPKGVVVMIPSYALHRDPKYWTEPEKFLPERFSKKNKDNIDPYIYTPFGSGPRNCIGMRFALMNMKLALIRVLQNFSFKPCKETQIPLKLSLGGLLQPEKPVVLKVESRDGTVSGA
- details: bti-tn-5b1-4
measured-parameter: IC50

compound | measured-on | data-value
CC(=O)N[C@@H]1[C@H](Oc2c3cc4cc2Oc2ccc(cc2Cl)[C@@H](O[C@@H]2O[C@@H](CO)[C@@H](O)[C@H](O)[C@@H]2NC(C)=O)[C@@H]2NC(=O)[C@H](NC(=O)[C@@H]4NC(=O)[C@H]4NC(=O)[C@@H](Cc5ccc(c(Cl)c5)O3)NC(=O)[C@H](N)c3ccc(O)c(c3)Oc3cc(O)cc4c3)c3ccc(O)c(c3)-c3c(O[C@H]4O[C@H](CO)[C@@H](O)[C@@H](O)[C@@H]4O)cc(O)cc3[C@@H](C(=O)O)NC2=O)O[C@@H](CO)[C@@H](O)[C@@H]1O | Cytochrome P450 3A4 (Homo sapiens) | Not Active
CCCCN1CCCCC1C(=O)Nc1c(C)cccc1C.Cl (configuration not stated) [BUPIVACAINE HYDROCHLORIDE] | Cytochrome P450 3A4 (Homo sapiens) | Not Active

====

- measured-on: Angiotensin-converting enzyme (Oryctolagus cuniculus)
- Sequence (P12822 whole entry): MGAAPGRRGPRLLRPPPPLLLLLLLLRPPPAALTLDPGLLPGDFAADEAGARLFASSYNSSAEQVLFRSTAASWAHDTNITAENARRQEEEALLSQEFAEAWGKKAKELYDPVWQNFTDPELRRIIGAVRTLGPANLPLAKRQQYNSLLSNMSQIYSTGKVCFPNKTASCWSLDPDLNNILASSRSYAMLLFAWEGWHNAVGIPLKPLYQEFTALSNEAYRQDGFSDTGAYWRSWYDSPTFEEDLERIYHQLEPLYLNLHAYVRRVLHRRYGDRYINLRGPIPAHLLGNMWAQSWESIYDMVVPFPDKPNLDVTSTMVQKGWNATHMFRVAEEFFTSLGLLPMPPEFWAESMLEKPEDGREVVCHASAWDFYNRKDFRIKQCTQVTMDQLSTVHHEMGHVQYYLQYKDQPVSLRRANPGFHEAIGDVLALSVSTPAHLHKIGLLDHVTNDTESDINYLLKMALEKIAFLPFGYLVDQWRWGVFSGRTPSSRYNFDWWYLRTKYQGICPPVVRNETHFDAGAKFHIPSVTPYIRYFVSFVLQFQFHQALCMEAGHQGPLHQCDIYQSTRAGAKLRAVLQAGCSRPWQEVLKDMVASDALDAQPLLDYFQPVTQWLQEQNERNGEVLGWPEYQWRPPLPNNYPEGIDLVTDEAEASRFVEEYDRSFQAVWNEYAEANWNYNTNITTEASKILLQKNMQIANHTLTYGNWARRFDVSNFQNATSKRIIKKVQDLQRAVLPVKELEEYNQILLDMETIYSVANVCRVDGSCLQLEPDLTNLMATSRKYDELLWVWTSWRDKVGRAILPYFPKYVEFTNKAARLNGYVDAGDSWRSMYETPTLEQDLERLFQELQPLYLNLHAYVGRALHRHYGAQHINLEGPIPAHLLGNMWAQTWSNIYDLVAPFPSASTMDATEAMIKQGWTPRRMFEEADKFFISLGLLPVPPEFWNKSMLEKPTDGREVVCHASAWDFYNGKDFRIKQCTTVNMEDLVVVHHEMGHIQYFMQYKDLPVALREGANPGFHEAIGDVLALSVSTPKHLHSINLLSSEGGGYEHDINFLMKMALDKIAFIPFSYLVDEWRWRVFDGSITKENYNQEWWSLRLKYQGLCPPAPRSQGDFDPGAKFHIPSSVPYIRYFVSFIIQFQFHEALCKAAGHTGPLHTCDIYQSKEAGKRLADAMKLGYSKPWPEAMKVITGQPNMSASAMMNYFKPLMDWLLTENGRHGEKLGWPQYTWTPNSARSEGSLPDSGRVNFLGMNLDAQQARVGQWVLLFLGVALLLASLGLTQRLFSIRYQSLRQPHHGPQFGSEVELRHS
- Format: tissue-based, Lung
measured-parameter: IC50

compound | IC50
C[C@@H](N)[C@H]1CC[C@H](C(=O)Nc2ccncc2)CC1 [Y-27632] | Not Active
CNC(=C[N+](=O)[O-])NCCSCc1ccc(CN(C)C)o1 [RANITIDINE] | Not Active
CN(C)/N=N/c1[nH]cnc1C(N)=O [DACARBAZINE] | Not Active
CCCC(CCC)C(=O)O [VALPROIC ACID] | Not Active
O=C1CC2(CCCC2)CC(=O)N1CCCCN1CCN(c2ncccn2)CC1 [BUSPIRONE] | Not Active

IC50 for CC(=O)N1CCN(c2ccc(OCC3COC(Cn4ccnc4)(c4ccc(Cl)cc4Cl)O3)cc2)CC1 (configuration not stated) [KETOCONAZOLE] ?
Not Active

Entry C#C[C@]1(OC(C)=O)CC[C@H]2[C@@H]3CCC4=CC(=O)CC[C@@H]4[C@H]3CC[C@@]21C [NORETHINDRONE ACETATE] please
Not Active

====

- assay-summary: DRUGMATRIX: beta-Lactamase enzyme inhibition (substrate: Nitrocefin)
- Set-up: species or system Bacillus cereus
- details: Not Active = under 50% inhibition at 10 µM; read-out: IC50
measured-parameter: IC50 (nM)
Numeric only. Scale: nM

Fill blank: measured IC50 of the compound C[C@]1(Cn2ccnn2)[C@H](C(=O)O)N2C(=O)C[C@H]2S1(=O)=O is ____.
299
